Reference source for all entries: ChEMBL document CHEMBL4020721

Entries and their log10(microsomal CLint at 1 µM) values follow.
# test_method_notes: Intrinsic clearance in human liver microsomes assessed per mg protein at 1 uM preincubated for 5 mins followed by NADPH addition measured after 5 to 30 mins by LC-MS/MS analysis
# Type: ADME, microsome
# condition_details: read-out: CLH
log10 microsomal CLint at 1 µM, µL/min/mg

Some solved cases for reference:
compound: CC(c1c(F)cc2ncc(-c3cnn(C)c3)cc2c1F)n1nnc2ncc(-c3cnn(C)c3)nc21 (centres undefined)
log10(microsomal CLint at 1 µM): 1.23
//
compound: CC(c1ccc2ncc(-c3cnn(C)c3)cc2c1)n1nnc2ncc(-c3cnn(C)c3)nc21 (centres undefined)
log10(microsomal CLint at 1 µM): 1.08

Consider the compound CC(c1ccc2ncc(-c3cnn(C)c3)cc2c1)n1nnc2ncc(-c3ccc(C(N)=O)c(F)c3)nc21 (centres undefined) and give its recorded log10(microsomal CLint at 1 µM).
0.48

Give the reported log10(microsomal CLint at 1 µM) for this compound. CC(c1c(F)cc2ncc(-c3cnn(C)c3)cc2c1F)n1nnc2ncc(-c3cnn(CCO)c3)nc21 (centres undefined)
0.90

Report log10(microsomal CLint at 1 µM), nothing else, for this compound: CC(c1ccc2ncc(-c3ccc(F)cc3)cc2c1)n1nnc2ncc(-c3ccncc3)nc21 (centres undefined)
1.15

Output log10(microsomal CLint at 1 µM) of CNC(=O)c1ccc(-c2cnc3nnn(C(C)c4cc5cc(-c6cnn(C)c6)cnc5cc4F)c3n2)cc1F (centres undefined)
0.70

Return log10(microsomal CLint at 1 µM) (reported value) for this compound: CC(c1cc2cc(-c3cnn(C)c3)cnc2cc1F)n1nnc2ncc(-c3cnn(C)c3)nc21 (centres undefined)
0.70

Note log10(microsomal CLint at 1 µM) for the compound shown: CC(c1ccc2ncc(-c3cnn(C)c3)cc2c1)n1nnc2ncc(-c3ccncc3)nc21 (centres undefined)
1.34

Return value of log10(microsomal CLint at 1 µM) for input CC(c1cc2cc(-c3cnn(C)c3)cnc2cc1F)n1nnc2ncc(-c3ccc(C(N)=O)c(F)c3)nc21 (centres undefined) , no commentary.
0.30

###

# test_target: Epidermal growth factor receptor (Homo sapiens, UniProt P00533, T790M)
# Sequence (P00533 25-1210 T790M limits assumed): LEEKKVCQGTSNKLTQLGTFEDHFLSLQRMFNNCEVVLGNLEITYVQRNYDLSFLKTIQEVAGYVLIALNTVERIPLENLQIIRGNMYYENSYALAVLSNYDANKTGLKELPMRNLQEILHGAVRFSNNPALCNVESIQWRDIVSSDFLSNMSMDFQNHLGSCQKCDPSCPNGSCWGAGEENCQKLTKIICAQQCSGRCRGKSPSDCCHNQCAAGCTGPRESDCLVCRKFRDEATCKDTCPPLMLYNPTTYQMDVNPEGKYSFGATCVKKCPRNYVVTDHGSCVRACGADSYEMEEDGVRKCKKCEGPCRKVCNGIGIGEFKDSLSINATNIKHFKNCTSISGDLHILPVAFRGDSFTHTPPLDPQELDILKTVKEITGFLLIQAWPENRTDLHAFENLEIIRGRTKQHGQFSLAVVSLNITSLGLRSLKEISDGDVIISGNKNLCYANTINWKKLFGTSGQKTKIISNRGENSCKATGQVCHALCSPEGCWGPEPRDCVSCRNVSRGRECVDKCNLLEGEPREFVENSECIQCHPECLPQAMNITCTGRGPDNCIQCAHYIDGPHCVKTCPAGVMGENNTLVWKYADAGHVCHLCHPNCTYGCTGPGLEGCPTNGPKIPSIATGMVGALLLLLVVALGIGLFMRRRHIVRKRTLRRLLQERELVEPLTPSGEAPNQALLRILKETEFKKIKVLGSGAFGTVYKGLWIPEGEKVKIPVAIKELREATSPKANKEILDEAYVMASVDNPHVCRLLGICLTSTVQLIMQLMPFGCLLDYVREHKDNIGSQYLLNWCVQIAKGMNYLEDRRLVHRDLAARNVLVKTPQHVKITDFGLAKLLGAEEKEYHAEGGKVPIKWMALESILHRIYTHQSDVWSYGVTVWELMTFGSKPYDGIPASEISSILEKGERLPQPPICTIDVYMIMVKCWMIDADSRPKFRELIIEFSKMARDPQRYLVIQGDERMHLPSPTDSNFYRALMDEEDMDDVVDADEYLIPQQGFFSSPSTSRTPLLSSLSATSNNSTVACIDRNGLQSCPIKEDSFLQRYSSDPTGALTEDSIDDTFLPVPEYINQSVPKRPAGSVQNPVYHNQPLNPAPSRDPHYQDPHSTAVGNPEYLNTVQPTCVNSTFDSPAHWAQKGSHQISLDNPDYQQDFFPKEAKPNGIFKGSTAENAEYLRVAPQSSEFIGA
# test_method_notes: Inhibition of EGFR T790M mutant (unknown origin) using FAM-labeled peptide as substrate preincubated for 5 to 10 mins followed by substrate/ATP addition measured after 30 to 60 mins by mobility shift assay
assay_readout: IC50

Determine from records and report IC50 for CC(c1cc2cc(-c3cnn(C)c3)cnc2cc1F)n1nnc2ncc(-c3cnn(CCO)c3)nc21 (stereo in doubt; 14)
> 30 µM

###

A collection of compounds and their measured microsomal CLint at 1 µM
# test_method_notes: Intrinsic clearance in monkey liver microsomes assessed per mg protein at 1 uM preincubated for 5 mins followed by NADPH addition measured after 5 to 30 mins by LC-MS/MS analysis
# condition_details: liver microsomes; read-out: CLH
Record the result as number plus unit.

Examples from the recorded data:
compound: CC(c1c(F)cc2ncc(-c3cnn(C)c3)cc2c1F)n1nnc2ncc(-c3cnn(CCO)c3)nc21 (stereo not drawn)
assay_readout: microsomal CLint at 1 µM
reported_value: 43 µL/min/mg
--
compound: CC(c1ccc2ncc(-c3cnn(C)c3)cc2c1)n1nnc2ncc(-c3ccncc3)nc21 (stereo not drawn)
assay_readout: microsomal CLint at 1 µM
reported_value: 78 µL/min/mg
--
compound: CC(c1c(F)cc2ncc(-c3cnn(C)c3)cc2c1F)n1nnc2ncc(-c3cnn(C)c3)nc21 (stereo not drawn)
assay_readout: microsomal CLint at 1 µM
reported_value: 86 µL/min/mg
--
compound: CC(c1c(F)cc2ncc(-c3cnn(C)c3)cc2c1F)n1nnc2ncc(-c3ccncc3)nc21 (stereo not drawn)
assay_readout: microsomal CLint at 1 µM
reported_value: 106 µL/min/mg
--
compound: CC(c1c(F)cc2ncc(-c3cnn(C)c3)cc2c1F)n1nnc2ncc(-c3ccc(C(N)=O)c(F)c3)nc21 (stereo not drawn)
assay_readout: microsomal CLint at 1 µM
reported_value: 50 µL/min/mg
--
compound: CC(c1ccc2ncc(-c3cnn(C)c3)cc2c1)n1nnc2ncc(-c3cnn(C)c3)nc21 (stereo not drawn)
assay_readout: microsomal CLint at 1 µM
reported_value: 42 µL/min/mg
--
compound: CNC(=O)c1ccc(-c2cnc3nnn(C(C)c4c(F)cc5ncc(-c6cnn(C)c6)cc5c4F)c3n2)cc1F (stereo not drawn)
assay_readout: microsomal CLint at 1 µM
reported_value: 187 µL/min/mg

Indicate the recorded microsomal CLint at 1 µM value for this compound: CC(c1ccc2ncc(-c3ccc(F)cc3)cc2c1)n1nnc2ncc(-c3cnn(C)c3)nc21 (stereo not drawn)
112 µL/min/mg
